test system: BDF1 mice, P388 leukemia ip, median survival T/C; assay: NCI In Vivo Anticancer Drug Screen. Data for tumor model P388 Leukemia (intraperitoneal) in B6D2F1 (BDF1) mice; settings: endpoint: median survival time; dose: 75.0 mg/kg/injection; schedule: Q01DX009 (ip); vehicle: Klucel (hydroxypropylcellulose) (HPC); higher = longer survival
Inconclusive results and toxic doses are left out.
property_measured: T/C

Some solved cases for reference:
CCCC(C1=CC(C)(C)c2ccccc2C1=O)c1ccc(Br)cc1 (stereo not given) ... 109 % of control
O=[N+]([O-])c1ccc(N=Nc2c(Cl)cc(O)cc2Cl)cc1 ... 118 % of control
CC1(C)CC(=O)C=C(NCc2ccccc2)C1 ... 100 % of control
CC(=N/O)/C(C)=N\O ... 100 % of control

We now examine a further molecule.
Reported T/C for Cc1cc(NS(=O)(=O)c2ccccc2)ccc1NS(=O)(=O)c1ccccc1 was 87 % of control

----------
Documented T/C across a set of compounds
system: BDF1 mice, P388 leukemia ip, median survival T/C; assay: NCI In Vivo Anticancer Drug Screen. Data for tumor model P388 Leukemia (intraperitoneal) in B6D2F1 (BDF1) mice; conditions: endpoint: median survival time; dose: 6.25 mg/kg/injection; schedule: Q01DX009 (ip); vehicle: water; higher = longer survival
Inconclusive results and toxic doses are left out.

The following compounds have reported results that may help.
NC(=O)/C=C/c1c[nH]c2nccnc12 ... 108 % of control
COc1cc(/C=C/C(=O)c2ccc3c(c2)OCO3)ccc1OCc1ccccc1 ... 100 % of control
COc1ccc(C(CC(C)=O)c2c(O)c3ccccc3oc2=O)cc1OC (centres undefined) ... 100 % of control

Note: attention shifts to another entry.
Reported T/C ( CCCCCCCCCCNC1CC(OC2CC(O)(C(C)=O)Cc3c(O)c4c(c(O)c32)C(=O)c2c(OC)cccc2C4=O)OC(C)C1O (centres undefined) ) = 103 % of control

----------
Reported T/C values are given for each entry in this list.
tested on: BDF1 mice, P388 leukemia ip, median survival T/C; assay: NCI In Vivo Anticancer Drug Screen. Data for tumor model P388 Leukemia (intraperitoneal) in B6D2F1 (BDF1) mice; details: endpoint: median survival time; dose: 200.0 mg/kg/injection; schedule: Q01DX001 (ip); vehicle: saline; higher = longer survival
Inconclusive results and toxic doses are left out.

Consider the worked cases shown below.
NC(=S)NCCO ... 95 % of control
CC1C[N+](C)(C)N=C1[O-] (stereo not drawn) ... 90 % of control
CSc1nnc(-c2ccncc2)s1 ... 100 % of control

Value (T/C, BDF1 mice, P388 leukemia ip, median survival T/C) for record CCOC(=O)C(Br)C(Br)c1ccccc1 (stereo not drawn) = 118 % of control

Readout T/C for COc1ccc(C2c3cc4c(c(OC)c3CC3OCC(=O)C32)OCO4)cc1OC (stereo not drawn) , test system BDF1 mice, P388 leukemia ip, median survival T/C, was 104 % of control

The reported T/C value, BDF1 mice, P388 leukemia ip, median survival T/C, for NC1CCC1N (stereo not drawn) reads 105 % of control

// T/C (BDF1 mice, P388 leukemia ip, median survival T/C) for O=C1COCC(=O)C1 = 107 % of control

Response field T/C (BDF1 mice, P388 leukemia ip, median survival T/C) for item C=CN1CCCC1=O : 95 % of control
